Recorded measurements of Maximum Inhibition (%) ID8, one per entry
- Test system: ID8 ovarian cancer cell line
- methodSummary: MTT reduction assay, 4 h, rapid toxicity, ID8
- Assay type: cell-based
- testConditions: MTT assay, 4 h treatment; ND = not detected or cannot be calculated
Note: unit % is implicit; provide only the numeric part.

Study these solved cases before continuing.
• Cc1ccc(C(C)C)cc1.F[P-](F)(F)(F)(F)F.O=C(OCC1OC(c2nnc(-c3ccccn3)o2)C(OC(=O)c2ccccc2)C(OC(=O)c2ccccc2)C1OC(=O)c1ccccc1)c1ccccc1.[Cl][Os+] (mixture of isomers) [Os-4] = 22.91
• Cc1c(C)c(C)[c-](C)c1C.F[P-](F)(F)(F)(F)F.O=C(OCC1OC(c2nnc(-c3ccccn3)o2)C(OC(=O)c2ccccc2)C(OC(=O)c2ccccc2)C1OC(=O)c1ccccc1)c1ccccc1.[Cl][Ir+2] (mixture of isomers) = 26.11
• Cc1ccc(C(C)C)cc1.F[P-](F)(F)(F)(F)F.O=C(OCC1OC(c2nnc(-c3ccccn3)o2)C(OC(=O)c2ccccc2)C(OC(=O)c2ccccc2)C1OC(=O)c1ccccc1)c1ccccc1.[Cl][Os+] (mixture of isomers) [Os-3] = 35.24

Could you now consider this next molecule?
## Task # returns recorded Maximum Inhibition (%) ID8 (system: ID8 ovarian cancer cell line) for Cc1ccc(C(C)C)cc1.F[P-](F)(F)(F)(F)F.O=C(OC1COC(c2nnc(-c3ccccn3)o2)C(OC(=O)c2ccccc2)C1OC(=O)c1ccccc1)c1ccccc1.[Cl][Os+] (mixture of isomers)
## Result 59.51
